Target: hM2 receptor (CHO-K1 cells) (Homo sapiens)
Construct: expressed in transfected cells; host or cells: CHO-K1 cells
Test: Blockade of agonist-mediated [35S]GTPγS binding
Assay type: biochemical
Settings: CHO-K1 cells expressing hM2; this or a similar assay; read-out: Ki for blockade of oxotremorine-stimulated [35S]GTPγS binding
pKi: −log10 of the molar value.
measured endpoint: pKi

// pKi value for CN(CCN1CCC(OC(=O)Nc2ccccc2-c2ccccc2)CC1)C(=O)c1cccc(C(=O)NCCNCc2ccc(O)cc2)c1 [compound of formula I] : > 8.00

----------
Biological target: M3 muscarinic receptor subtype (hM3) (Homo sapiens)
Sequence (P20309 whole entry): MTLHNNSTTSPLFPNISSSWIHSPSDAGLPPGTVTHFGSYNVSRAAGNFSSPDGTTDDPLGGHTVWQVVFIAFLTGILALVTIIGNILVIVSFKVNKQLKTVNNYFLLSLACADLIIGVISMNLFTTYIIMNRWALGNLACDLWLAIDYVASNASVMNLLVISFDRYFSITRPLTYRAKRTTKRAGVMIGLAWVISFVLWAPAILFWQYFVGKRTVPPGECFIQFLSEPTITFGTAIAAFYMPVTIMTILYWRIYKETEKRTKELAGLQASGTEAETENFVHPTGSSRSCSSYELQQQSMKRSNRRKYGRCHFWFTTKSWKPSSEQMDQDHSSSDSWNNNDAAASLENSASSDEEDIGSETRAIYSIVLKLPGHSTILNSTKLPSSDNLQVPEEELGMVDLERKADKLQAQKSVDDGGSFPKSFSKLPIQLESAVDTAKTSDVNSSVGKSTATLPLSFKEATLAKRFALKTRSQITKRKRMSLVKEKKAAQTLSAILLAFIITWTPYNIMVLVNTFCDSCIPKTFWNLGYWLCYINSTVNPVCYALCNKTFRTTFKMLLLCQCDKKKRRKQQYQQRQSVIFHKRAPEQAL
measured endpoint: Ki

The recorded Ki with M3 muscarinic receptor subtype (hM3) (Homo sapiens) for CN(CCN1CCC(OC(=O)Nc2ccccc2-c2ccccc2)CC1)C(=O)c1cccc(C(=O)NCCNCc2ccc(O)cc2)c1 was < 5 nM

----------
Molecular target: hM3 receptor (CHO cells) (Homo sapiens, UniProt P20309)
Sequence (P20309 whole entry): as above
Test: Blockade of agonist-mediated calcium release via FLIPR
Details: CHO cells stably expressing hM3, FLIPR; this or a similar assay
measured endpoint: Ki

// Ki value for CN(CCN1CCC(OC(=O)Nc2ccccc2-c2ccccc2)CC1)C(=O)c1cccc(C(=O)NCCNCc2ccc(O)cc2)c1 : < 10 nM

----------
Target: hM2 receptor (CHO-K1 cells) (Homo sapiens, UniProt P08172)
Construct: expressed in transfected cells; host or cells: CHO-K1 cells
Sequence (P08172 1-466): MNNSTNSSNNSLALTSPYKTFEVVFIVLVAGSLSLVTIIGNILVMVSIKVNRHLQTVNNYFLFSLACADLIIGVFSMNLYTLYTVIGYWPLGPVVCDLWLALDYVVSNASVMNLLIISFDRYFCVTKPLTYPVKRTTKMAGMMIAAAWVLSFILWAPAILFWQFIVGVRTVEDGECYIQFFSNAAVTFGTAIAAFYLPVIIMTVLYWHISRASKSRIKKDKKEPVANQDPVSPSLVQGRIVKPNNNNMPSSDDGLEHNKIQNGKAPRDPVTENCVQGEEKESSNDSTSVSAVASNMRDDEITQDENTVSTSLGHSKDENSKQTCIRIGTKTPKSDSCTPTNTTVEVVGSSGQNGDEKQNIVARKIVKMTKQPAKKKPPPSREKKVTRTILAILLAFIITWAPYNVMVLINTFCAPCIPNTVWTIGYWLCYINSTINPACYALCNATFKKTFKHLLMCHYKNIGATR
Test: Blockade of agonist-mediated inhibition of cAMP accumulation
Assay type: cell-based
Details: CHO-K1 cells expressing hM2; this or a similar assay; read-out: Ki for blockade of oxotremorine-inhibition of forskolin-mediated cAMP accumulation
pKi: −log10 of the molar value.
measured endpoint: pKi

Entry CN(CCN1CCC(OC(=O)Nc2ccccc2-c2ccccc2)CC1)C(=O)c1cccc(C(=O)NCCNCc2ccc(O)cc2)c1 , pKi reported as > 8.30

----------
Conditions: 5° C./min
measured endpoint: no thermal decomposition below (DSC trace)

compound	result
CN(CCN1CCC(OC(=O)Nc2ccccc2-c2ccccc2)CC1)C(=O)c1cccc(C(=O)NCCNCc2ccc(O)cc2)c1.CN(CCN1CCC(OC(=O)Nc2ccccc2-c2ccccc2)CC1)C(=O)c1cccc(C(=O)NCCNCc2ccc(O)cc2)c1.O=S(=O)(O)c1cccc2c(S(=O)(=O)O)cccc12 [crystalline heminapadisylate salt]	≥ 220 °C
CN(CCN1CCC(OC(=O)Nc2ccccc2-c2ccccc2)CC1)C(=O)c1cccc(C(=O)NCCNCc2ccc(O)cc2)c1 [crystalline freebase (Form I)]	≥ 95 °C
CN(CCN1CCC(OC(=O)Nc2ccccc2-c2ccccc2)CC1)C(=O)c1cccc(C(=O)NCCNCc2ccc(O)cc2)c1.CN(CCN1CCC(OC(=O)Nc2ccccc2-c2ccccc2)CC1)C(=O)c1cccc(C(=O)NCCNCc2ccc(O)cc2)c1.O=S(=O)(O)CCS(=O)(=O)O [crystalline hemiedisylate salt]	≥ 190 °C

Form: compound = CN(CCN1CCC(OC(=O)Nc2ccccc2-c2ccccc2)CC1)C(=O)c1cccc(C(=O)NCCNCc2ccc(O)cc2)c1 [crystalline freebase (Form II)] ; no thermal decomposition below (DSC trace) = ≥ 110 °C

Taken from patent US7973055B2.
